meta.source: ChEMBL document CHEMBL4732160

assay: Cytotoxicity against mouse RAW264.7 cells assessed as cell viability at 40 uM measured after 24 hrs by MTT assay relative to control; assay type: cell-based
Recorded endpoint: viability at 24 h, 40 µM (%)
Answers are plain numbers, in %.

Okay, here is my list. What is viability at 24 h, 40 µM for each of these?
1. COc1ccc([C@@H]2CC(=O)c3c(O)cc(OCc4cn(Cc5cccc(Cl)c5)nn4)cc3O2)cc1O
2. COc1ccc([C@@H]2CC(=O)c3c(O)cc(OCc4cn(Cc5ccc(Cl)cc5)nn4)cc3O2)cc1O
3. COc1ccc2c(c1)c(CC(=O)O)c(C)n2C(=O)c1ccc(Cl)cc1 [INDOMETHACIN]
4. COc1ccc([C@@H]2C/C(=N\O)c3c(O)cc(OCc4cn(Cc5ccccc5Cl)nn4)cc3O2)cc1O
5. COc1ccc([C@@H]2C/C(=N\O)c3c(O)cc(OCc4cn(C5CCCC5)nn4)cc3O2)cc1O
6. CCCCn1cc(COc2cc(O)c3c(c2)O[C@H](c2ccc(OC)c(O)c2)C/C3=N\O)nn1
7. COc1ccc([C@@H]2CC(=O)c3c(O)cc(OCc4cn(C)nn4)cc3O2)cc1O

1: 120; 2: 94; 3: 87; 4: 86; 5: 112; 6: 62; 7: 105
